Listed next: entries and their corresponding melting point.

>  <Mol smiles>
C=CCOC(=O)c1c(C)cc(OC(=O)c2c(C)cc(OCCC)c(C)c2O)c(C)c1O

>  <melting point>
98 to 111 °C

$$$$
>  <Mol smiles>
Cc1cc(OCc2ccccc2)c(C)c(O)c1C(=O)Oc1cc(C)c(C(=O)OC(C)C)c(O)c1C

>  <melting point>
135 to 138 °C

$$$$
>  <Mol smiles>
Cc1cc(OCc2ccccc2)c(C)c(O)c1C(=O)Oc1cc(C)c(C(=O)OCC#N)c(O)c1C

>  <melting point>
151 to 155 °C

$$$$
>  <Mol smiles>
CCOc1cc(C)c(C(=O)Oc2cc(C)c(C(=O)OCC#N)c(O)c2C)c(O)c1C

>  <melting point>
160 to 163 °C

$$$$
>  <Mol smiles>
COC(=O)c1c(C)cc(OC(=O)c2c(C)cc(OC(C)C)c(C)c2O)c(C)c1O

>  <melting point>
60 to 63 °C

$$$$
>  <Mol smiles>
CCCOC(=O)c1c(C)cc(OC(=O)c2c(C)cc(OCc3ccccc3)c(C)c2O)c(C)c1O

>  <melting point>
115 to 118 °C

$$$$
>  <Mol smiles>
Cc1cc(OC(=O)c2c(C)cc(OC(C)C)c(C)c2O)c(C)c(O)c1C(=O)OC(C)C

>  <melting point>
140 to 143 °C

$$$$
>  <Mol smiles>
CCOC(=O)c1c(C)cc(OC(=O)c2c(C)cc(OC)c(C)c2O)c(C)c1O

>  <melting point>
175 to 178 °C

$$$$
>  <Mol smiles>
COc1cc(C)c(C(=O)Oc2cc(C)c(C(=O)OCC#N)c(O)c2C)c(O)c1C

>  <melting point>
184 to 187 °C

$$$$
>  <Mol smiles>
CCOC(=O)c1c(C)cc(OC(=O)c2c(C)cc(OC(C)C)c(C)c2O)c(C)c1O

>  <melting point>
62 to 65 °C

$$$$
>  <Mol smiles>
CCOC(=O)c1c(C)cc(OC(=O)c2c(C)cc(OCC)c(C)c2O)c(C)c1O

>  <melting point>
187 to 190 °C

$$$$
>  <Mol smiles>
COC(=O)c1c(C)cc(OC(=O)c2c(C)cc(OCc3ccccc3)c(C)c2O)c(C)c1O

>  <melting point>
131 to 134 °C

$$$$
>  <Mol smiles>
CCCOc1cc(C)c(C(=O)Oc2cc(C)c(C(=O)OC(C)C)c(O)c2C)c(O)c1C

>  <melting point>
112 to 115 °C

$$$$
>  <Mol smiles>
CCCOC(=O)c1c(C)cc(OC(=O)c2c(C)cc(OCC)c(C)c2O)c(C)c1O

>  <melting point>
154 to 157 °C

$$$$
>  <Mol smiles>
C=CCOC(=O)c1c(C)cc(OC(=O)c2c(C)cc(OC(C)C)c(C)c2O)c(C)c1O

>  <melting point>
111 to 114 °C

$$$$
>  <Mol smiles>
Cc1cc(OC(=O)c2c(C)cc(OC(C)C)c(C)c2O)c(C)c(O)c1C(=O)OCc1ccccc1

>  <melting point>
83 to 86 °C

$$$$
>  <Mol smiles>
Cc1cc(OCc2ccccc2)c(C)c(O)c1C(=O)Oc1cc(C)c(C(=O)OCc2ccccc2)c(O)c1C

>  <melting point>
153 to 157 °C

$$$$
>  <Mol smiles>
CCOc1cc(C)c(C(=O)Oc2cc(C)c(C(=O)OC(C)C)c(O)c2C)c(O)c1C

>  <melting point>
125 to 128 °C

$$$$
>  <Mol smiles>
CCOc1cc(C)c(C(=O)Oc2cc(C)c(C(=O)OCc3ccccc3)c(O)c2C)c(O)c1C

>  <melting point>
129 to 131 °C

$$$$
>  <Mol smiles>
C=CCOc1cc(C)c(C(=O)Oc2cc(C)c(C(=O)OCC)c(O)c2C)c(O)c1C

>  <melting point>
116 to 120 °C

$$$$
>  <Mol smiles>
C=CCOC(=O)c1c(C)cc(OC(=O)c2c(C)cc(OC)c(C)c2O)c(C)c1O

>  <melting point>
155 to 157 °C

$$$$
>  <Mol smiles>
CCCOC(=O)c1c(C)cc(OC(=O)c2c(C)cc(OC(C)C)c(C)c2O)c(C)c1O

>  <melting point>
117 to 120 °C

$$$$
>  <Mol smiles>
COc1cc(C)c(C(=O)Oc2cc(C)c(C(=O)OC(C)C)c(O)c2C)c(O)c1C

>  <melting point>
135 to 138 °C

$$$$
>  <Mol smiles>
C=CCOc1cc(C)c(C(=O)Oc2cc(C)c(C(=O)OCc3ccccc3)c(O)c2C)c(O)c1C

>  <melting point>
75 to 78 °C

$$$$
>  <Mol smiles>
C=CCOC(=O)c1c(C)cc(OC(=O)c2c(C)cc(OCC=C)c(C)c2O)c(C)c1O

>  <melting point>
110 to 113 °C

$$$$
>  <Mol smiles>
CCCOC(=O)c1c(C)cc(OC(=O)c2c(C)cc(OC)c(C)c2O)c(C)c1O

>  <melting point>
146 to 149 °C

$$$$
>  <Mol smiles>
Cc1cc(OC(=O)c2c(C)cc(OC(C)C)c(C)c2O)c(C)c(O)c1C(=O)OCC#N

>  <melting point>
155 to 158 °C

$$$$
>  <Mol smiles>
CCCOc1cc(C)c(C(=O)Oc2cc(C)c(C(=O)OCC)c(O)c2C)c(O)c1C

>  <melting point>
160 to 163 °C

$$$$
>  <Mol smiles>
C=CCOc1cc(C)c(C(=O)Oc2cc(C)c(C(=O)OCC#N)c(O)c2C)c(O)c1C

>  <melting point>
124 to 127 °C

$$$$
>  <Mol smiles>
CCOC(=O)c1c(C)cc(OC(=O)c2c(C)cc(OCc3ccccc3)c(C)c2O)c(C)c1O

>  <melting point>
123 to 126 °C

$$$$
>  <Mol smiles>
CCCOC(=O)c1c(C)cc(OC(=O)c2c(C)cc(OCCC)c(C)c2O)c(C)c1O

>  <melting point>
126 to 130 °C

$$$$
>  <Mol smiles>
CCCOc1cc(C)c(C(=O)Oc2cc(C)c(C(=O)OCC#N)c(O)c2C)c(O)c1C

>  <melting point>
135 to 138 °C

$$$$
>  <Mol smiles>
CCCOc1cc(C)c(C(=O)Oc2cc(C)c(C(=O)OCc3ccccc3)c(O)c2C)c(O)c1C

>  <melting point>
111 to 114 °C

$$$$
